Cited source for all entries: ChEMBL document CHEMBL1201862

Test system: U-251
Experiment: NCI tumour cell line growth inhibition, 48 h
Calls of active or inactive are those of the source. No stated cut-off is given here; in the data, active = GI50 up to about 1.1 µM and inactive = higher.
Items are presented alongside their recorded GI50.
endpoint-name: GI50

{"molecule": "CCCCN(CCCC)/C(=N\\C#N)NCc1ccccc1", "result": "15.3 µM (inactive)"}
{"molecule": "c1ccc(N/N=N/c2ccc(-c3nc4ccccc4o3)cc2)nc1", "result": "37.9 µM (inactive)"}
{"molecule": "C=C(C)C12CC3CC/C(=N/O)C(C1)C3(N1CCOCC1)C/C2=N/O (centres undefined)", "result": "> 100 µM (inactive)"}
{"molecule": "CC(C)COC(=O)N1N=NC2C3OC(CC3=O)C21 (centres undefined)", "result": "> 100 µM (inactive)"}
{"molecule": "CC(C)=CCC/C(C)=C/CCC(C(=O)COCc1ccccc1)P1(=O)OC(C)(C)CN1C(C)(C)C (centres undefined)", "result": "> 100 µM (inactive)"}
{"molecule": "Nc1nc(N)c2ncn(CCCC(c3ccccc3)P(=O)(O)O)c2n1 (centres undefined)", "result": "> 100 µM (inactive)"}
{"molecule": "Cc1ccc(C)n1-n1c(Cc2ccc(Cl)cc2)n[nH]c1=O", "result": "77.6 µM (inactive)"}
{"molecule": "O=C(COc1ccc(OCC(=O)N/N=C/c2ccc(-c3ccc(Cl)cc3Cl)o2)c(Cl)c1)N/N=C/c1ccc(-c2ccc(Cl)cc2Cl)o1", "result": "46.7 µM (inactive)"}
{"molecule": "C=C1[C@@H]2CCC3[C@]4(C)C(CC[C@@]5(C)C(=O)O[C@H](O)[C@@H]45)[C@H](O)[C@]3(C2)[C@H]1OC1OC(CO)C(O)C(O)C1O (some centres undefined)", "result": "> 50 µM (inactive)"}

###

Test system: MDA-N
Assay: NCI tumour cell line growth inhibition, 48 h
Calls of active or inactive are those of the source. No stated cut-off is given here; in the data, active = GI50 up to about 1.1 µM and inactive = higher.

{"compound": "CSC(=N\\c1ccccc1)/N=C(\\SCc1ccccc1)N(C)C", "GI50": "0.748 µM (active)"}
{"compound": "Cc1cc2c(cc1N)C(C)C1(CCC(=O)N2Cc2ccccc2)OCCO1 (stereo not drawn)", "GI50": "> 100 µM (inactive)"}
{"compound": "CC(C)c1ccc(/C(C(=O)O)=C(\\O)C(=O)O)cc1", "GI50": "> 100 µM (inactive)"}

###

Test system: HOP-92
Experiment: NCI tumour cell line growth inhibition, 48 h
Calls of active or inactive are those of the source. No stated cut-off is given here; in the data, active = GI50 up to about 1.1 µM and inactive = higher.

{"compound": "Cc1cc(=O)nc(Sc2ccc([N+](=O)[O-])cc2[N+](=O)[O-])[nH]1", "target-under-test": "HOP-92", "GI50": "6.64 µM (inactive)"}
{"compound": "CCOc1ccccc1/N=C(/NC(=O)CC)SC", "target-under-test": "HOP-92", "GI50": "> 10 µM (inactive)"}
{"compound": "C=CCc1cc(-c2cc(CC=C)c(O)c(CN(CC)CC)c2)cc(CN(CC)CC)c1O", "target-under-test": "HOP-92", "GI50": "18 µM (inactive)"}
{"compound": "CCOC(=O)c1cnn2c1ncc1c(=O)n(NC(N)=O)ccc12", "target-under-test": "HOP-92", "GI50": "> 100 µM (inactive)"}
{"compound": "CC1(C)CCCCCC(O)C(O)CCC(C)(C)C1=O (stereo not given)", "target-under-test": "HOP-92", "GI50": "> 100 µM (inactive)"}
{"compound": "COC(=O)c1c(O)ccc2c1c1c(n2Cc2cccc(C)c2)C(=O)c2ccccc2C1=O", "target-under-test": "HOP-92", "GI50": "6.61 µM (inactive)"}
{"compound": "COC(=O)C1CCC(=O)N1C(=O)Cc1ccc(OC)cc1 (stereo not given)", "target-under-test": "HOP-92", "GI50": "> 100 µM (inactive)"}
{"compound": "COC1=CC(=Nc2c(Cl)cc(Cl)cc2OC(=O)c2ccc([N+](=O)[O-])cc2)C=C(OC)C1=O", "target-under-test": "HOP-92", "GI50": "5.62 µM (inactive)"}
{"compound": "CC[C@@H]1C[C@H]2CC3c4[nH]c5ccc(O)cc5c4CCN(C2)C31", "target-under-test": "HOP-92", "GI50": "36.8 µM (inactive)"}
{"compound": "CC(=O)Nc1ccc(NCC(=O)Nn2cnc3ccc(S(=O)(=O)Nc4ccc(NC(C)=O)cc4)cc3c2=O)cc1", "target-under-test": "HOP-92", "GI50": "> 100 µM (inactive)"}

###

Tested on: SNB-19
Assay: NCI tumour cell line growth inhibition, 48 h
Active and inactive are the calls of the source. Rule as the data show it: active = GI50 up to about 1.1 µM and inactive = higher.
Labels: y (active), n (inactive)

{"compound": "CN1C(=O)C(CCO)(C(C)(C)C)c2ccccc21 (stereo not given)", "group": "n"}
{"compound": "CCOC(=O)c1cc2c3c(c(C(C)=O)c(O)c2[nH]1)N(C(C)=O)CC3", "group": "n"}
{"compound": "Cc1cc(N)c2ccccc2[n+]1CCCCCCCCCC[n+]1c(C)cc(N)c2ccccc21 [DEQUALINIUM CHLORIDE]", "group": "y"}
{"compound": "C=C1[C@@H]2CCC3[C@]4(C)C(CC[C@@]5(C)C(=O)O[C@H](O)[C@@H]45)[C@H](O)[C@]3(C2)[C@H]1OC1OC(CO)C(O)C(O)C1O (stereo not given in full)", "group": "n"}
{"compound": "O=C(O)CNC(=O)c1c2ccccc2nc2ccccc12", "group": "n"}

###

System: SF-295
Assay: NCI tumour cell line growth inhibition, 48 h
The source made the active and inactive calls. No stated cut-off is given here; in the data, active = GI50 up to about 1.1 µM and inactive = higher. Where a SMILES comes first, the peptide text is derived from it. The star is where a group is joined. ONb = O=[N+]([O-])c1ccc(CO*)cc1; Boc = CC(C)(C)OC(=O)*
Items are presented alongside their recorded GI50.

{"compound": "COc1cc(/C=C(\\C#N)c2ccccn2)cc(Br)c1O", "GI50": "37.8 µM (inactive)"}
{"compound": "CC(C)CC(NC(=O)OC(C)(C)C)C(=O)NC(CCC(=O)OCc1ccc([N+](=O)[O-])cc1)C(=O)OCc1ccc([N+](=O)[O-])cc1 (stereo not drawn) (Boc-Leu-Glu(ONb)-ONb; configuration not given here)", "GI50": "43.4 µM (inactive)"}
{"compound": "CNc1ccc(Cl)cc1S(=O)(=O)c1ccccc1[N+](=O)[O-]", "GI50": "> 100 µM (inactive)"}
{"compound": "CN(Nc1cc(=O)[nH]c(=O)[nH]1)c1ccccc1", "GI50": "> 100 µM (inactive)"}
{"compound": "C=CCN1CCC(c2cc(C(=O)OCC)[nH]c2-c2cc(C)no2)C1=O (stereo not given)", "GI50": "> 100 µM (inactive)"}
{"compound": "Clc1nc(Cl)nc(Nc2cccc3ccccc23)n1", "GI50": "> 10 µM (inactive)"}
{"compound": "Cc1cccc2nc3c(C(=O)NCCN(C)C)cccc3cc12", "GI50": "1.51 µM (inactive)"}
{"compound": "CSC(=N\\c1ccccc1)/N=C(\\SCc1ccccc1)N(C)C", "GI50": "1.43 µM (inactive)"}
{"compound": "Nc1ccc(C(=O)NN2C(=O)[C@H](Cl)C2c2ccc(Cl)cc2)cc1 (stereo not given in full)", "GI50": "4.55 µM (inactive)"}
{"compound": "CC1(C)CC(=O)C(CC2C(=O)c3ccccc3C2=O)C(=O)C1", "GI50": "> 100 µM (inactive)"}

###

System: NCI-H460
Assay: NCI tumour cell line growth inhibition, 48 h
Active and inactive are the calls of the source. Rule as the data show it: active = GI50 up to about 1.1 µM and inactive = higher.

{"compound": "CC(C)=CCCC(C)C1=C(O)C(=O)C(C)=CC1=O (stereo not given)", "GI50": "27.7 µM (inactive)"}
{"compound": "Cc1nc(-c2nc(C)c(C(=O)NN(C)C)s2)sc1C(=O)NN(C)C", "GI50": "> 100 µM (inactive)"}
{"compound": "O=S(=O)(Oc1ccc2oc3ccccc3c2c1-c1c(OS(=O)(=O)C(F)(F)F)ccc2oc3ccccc3c12)C(F)(F)F", "GI50": "> 100 µM (inactive)"}
{"compound": "CC1=C(C(N)=O)C(c2ccncc2)C(C#N)=C2SCC(=O)N12 (stereo not given)", "GI50": "> 100 µM (inactive)"}
{"compound": "COc1cc2ccc1NC(=O)N1CCN(CC1)C(=O)Nc1ccc(cc1OC)-c1ccc(c(OC)c1)NC(=O)N1CCN(CC1)C(=O)Nc1ccc-2cc1OC", "GI50": "> 100 µM (inactive)"}
{"compound": "COC1=CC(=Nc2c(Cl)cc(Cl)cc2OC(=O)c2ccc([N+](=O)[O-])cc2)C=C(OC)C1=O", "GI50": "14.4 µM (inactive)"}
{"compound": "N#Cc1c(-c2ccccc2)c(/C=N/c2ccc(Cl)cc2)c(=O)n2c1[nH]c1ccccc12", "GI50": "> 100 µM (inactive)"}
{"compound": "CCOC(=O)CCC(NC(=O)C(CCC(=O)OCC)NC(=O)C(Cc1ccc([N+](=O)[O-])cc1)NC(C)=O)C(=O)NNC(=O)OC(C)(C)C (stereo not given)", "GI50": "> 100 µM (inactive)"}
{"compound": "O=C(NCCc1ccccn1)c1ccc2cc(C(=O)N3CC(CCl)c4ccc([N+](=O)[O-])cc43)[nH]c2c1 (stereo not given)", "GI50": "22.7 µM (inactive)"}
{"compound": "Cc1ccc([N+](=O)[O-])cc1NC(=O)/C(=N/NC(=S)NN)C1SC(=S)NC1=O (stereo not given)", "GI50": "> 100 µM (inactive)"}
{"compound": "CCOC(=O)CC1(O)CCCCC1(Sc1ccc(C)cc1)Sc1ccc(C)cc1 (stereo not given)", "GI50": "56.4 µM (inactive)"}
{"compound": "CSc1ncnc2c1ncn2CCC(=O)O", "GI50": "> 100 µM (inactive)"}
{"compound": "Cc1c(C(=O)CSc2nc3ccccc3[nH]2)c(=O)n(-c2ccccc2)n1C", "GI50": "> 100 µM (inactive)"}
{"compound": "N#CCCN(CCC#N)c1ccc(/C=C2\\N=C(c3ccccc3)N(c3ccc(Cl)cc3)C2=O)cc1", "GI50": "> 100 µM (inactive)"}
{"compound": "O=c1/c(=C/c2cccc3ccccc23)sc2nc3ccccc3n12", "GI50": "> 100 µM (inactive)"}
{"compound": "O=C1C=C(NCCc2ccccc2)c2ccccc2C1=O", "GI50": "1.57 µM (inactive)"}
{"compound": "COC(=O)C1(Cc2ccc3c(c2)CCC3)Cc2ccccc2C1=O (stereo not given)", "GI50": "28.4 µM (inactive)"}
{"compound": "CC(C)COC(=O)N1N=NC2C3OC(CC3=O)C21 (stereo not given)", "GI50": "> 100 µM (inactive)"}
{"compound": "O=C(/C=C1\\Sc2ccccc2N=C1CC(=O)c1ccccc1)c1ccccc1", "GI50": "3.89 µM (inactive)"}
{"compound": "c1ccc(-c2cn3c(nc4ccccc43)c(-c3ccccc3)n2)cc1", "GI50": "58.1 µM (inactive)"}
